- TARGET_OR_TEST_SYSTEM: ALT (Homo sapiens)
- Construct: purchased ASAHI CHEMICAL INDUSTRIES CO., LTD; T-71
- ASSAY_NAME: Stabilization effect of amino acids on ALT in control substance (residual activity after storage)
- Type: biochemical
- STATED_CONDITIONS: 96 h, Human serum base; amino acid 10 mmol/L; r-ALT about 100 U/L; stored at 45°C for four days (Example 1); read-out: Residual activity (%) of ALT
Label rule, in plain words: activity at 10000 µM of 20% and up is 1 (yes), under 20% is 0 (no).

[[record]]
mol_smiles = "NCC(=O)O"
assigned_category = "0 (no)"


query: Please indicate if the recorded activity at 10000 µM for "CC(C)[C@H](N)C(=O)O" meets or exceeds 20%.
result: 1 (yes)

query: # bool: activity at 10000 µM of "CC[C@H](C)[C@H](N)C(=O)O" >= 20%
result: 0 (no)

query: Is activity at 10000 µM for "C[C@H](N)C(=O)O" at or above 20%?
result: 0 (no)

query: Check the entry "N[C@@H](CO)C(=O)O" : does activity at 10000 µM equal or exceed 20%?
result: 0 (no)

query: Hello, I need to know if "C[C@@H](O)[C@H](N)C(=O)O" has measured activity at 10000 µM not below 20%. Thanks!
result: 0 (no)

query: Determine whether measured activity at 10000 µM meets or exceeds 20% for "N[C@@H](CS)C(=O)O"
result: 0 (no)

query: Decide: activity at 10000 µM of "N[C@@H](Cc1ccccc1)C(=O)O" >= 20%?
result: 0 (no)

query: Is activity at 10000 µM at least 20%? Consider "N[C@@H](Cc1c[nH]cn1)C(=O)O"
result: 0 (no)

query: Given the entry "N[C@@H](Cc1c[nH]c2ccccc12)C(=O)O" , answer whether its activity at 10000 µM meets or surpasses 20%.
result: 0 (no)

query: Identify whether the reported activity at 10000 µM of the following compound is 20% or greater: "O=C(O)[C@@H]1CCCN1"
result: 1 (yes)

* * *

List of activity at 10000 µM values.
- TARGET_OR_TEST_SYSTEM: ALT (Homo sapiens, UniProt P24298)
- Construct: purchased ASAHI CHEMICAL INDUSTRIES CO., LTD; T-71
- Sequence (P24298 1-496): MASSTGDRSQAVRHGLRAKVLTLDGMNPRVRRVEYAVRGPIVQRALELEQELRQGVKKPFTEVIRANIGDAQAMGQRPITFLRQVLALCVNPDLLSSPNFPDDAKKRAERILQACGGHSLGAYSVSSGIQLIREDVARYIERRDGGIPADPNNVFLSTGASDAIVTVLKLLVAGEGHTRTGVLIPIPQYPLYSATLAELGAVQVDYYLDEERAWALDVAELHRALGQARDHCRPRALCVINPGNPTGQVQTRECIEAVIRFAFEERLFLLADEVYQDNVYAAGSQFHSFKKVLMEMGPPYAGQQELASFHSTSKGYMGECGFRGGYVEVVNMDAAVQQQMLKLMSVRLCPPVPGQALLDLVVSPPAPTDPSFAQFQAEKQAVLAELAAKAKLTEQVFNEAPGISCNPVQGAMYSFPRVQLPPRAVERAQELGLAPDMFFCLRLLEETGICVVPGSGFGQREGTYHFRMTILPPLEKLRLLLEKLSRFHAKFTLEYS
- ASSAY_NAME: Stabilization effect of amino acids on ALT in control substance (residual activity after storage)
- Format: biochemical
- STATED_CONDITIONS: 96 h, BSA base; amino acid 10 mmol/L; r-ALT about 100 U/L; stored at 45°C for four days (Example 1); read-out: Residual activity (%) of ALT
Give the value, in units of %, as a plain number.

Some compounds with known activity at 10000 µM results, for comparison:
[[record]]
compound = "NC(=O)C[C@H](N)C(=O)O [Asparagine]"
target_or_test_system = "ALT (Homo sapiens, UniProt P24298)"
measurement_label = "activity at 10000 µM"
unit_descriptor = "%"
result_value = 25

[[record]]
compound = "C[C@@H](O)[C@H](N)C(=O)O [Threonine]"
target_or_test_system = "ALT (Homo sapiens, UniProt P24298)"
measurement_label = "activity at 10000 µM"
unit_descriptor = "%"
result_value = 31


Next:
query: ALT (Homo sapiens, UniProt P24298) / activity at 10000 µM / O=C(O)[C@@H]1CCCN1 [proline] : value?
result: 61

Where these numbers come from: patent EP1508617B1
